assay: Solubility of cyclazocine in solvents (equilibration, solids content after solvent evaporation); type: physicochemical; conditions: n-butanol, organic solvent or mixture, n-butanol; 25° C.; read-out: Solubility
READOUT TYPE: solubility
Kindly format the answer as number then unit.

In one line, give reported solubility of the entry C[C@H]1[C@H]2Cc3ccc(O)cc3[C@]1(C)CCN2CC1CC1 .
15 mg/mL

* * *

test: Solubility of cyclazocine in solvents (equilibration, solids content after solvent evaporation); type: physicochemical; conditions: 50 acetone/50 ethanol (v/v), organic solvent or mixture, 50 acetone/50 ethanol (V/V); 25° C.; read-out: Solubility
READOUT TYPE: solubility (µg/mL)
Write the answer as a number in µg/mL, unit excluded.

In one line, give reported solubility of the entry C[C@H]1[C@H]2Cc3ccc(O)cc3[C@]1(C)CCN2CC1CC1 [cyclazocine] .
4700
